Entries annotated with measured abundance fitness
B1: E3 ubiquitin-protein ligase Midline-1, residues 172 to 214; numbered along this chain, O15344 (parent)
chain: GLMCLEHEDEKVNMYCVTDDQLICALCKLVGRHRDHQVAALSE

- Variants of: B1
- Assay comment: abundance fitness (aPCA) (normalised: wild type 0, dead -1); higher = more abundant; growth selection in yeast, the domain comes from the species named
- Condition context: Homo sapiens
Assay metric: abundance fitness

Mutant designation	Assay metric	Recorded measurement
V12G	abundance fitness	0.026
E6H	abundance fitness	0.063
L41W	abundance fitness	0.001
C27L	abundance fitness	-0.883
D35K	abundance fitness	-0.105
G31A	abundance fitness	-0.231
M14K	abundance fitness	0.121
D19A	abundance fitness	-0.928
G31R	abundance fitness	-0.299
D9G	abundance fitness	0.031
Q37R	abundance fitness	-0.077
L29A	abundance fitness	0.135
K28M	abundance fitness	-0.114
S42A	abundance fitness	-0.021
